System: NKTC primary neonatal keratinocytes
Assay: IC50 cell viability (CellTiter-Glo)
Conditions: 24 h
Where a name gives a salt, the structure may show the parent alone.
Entries and their measured IC50 cell viability follow.
Report as a plain number; the unit µM is understood.

[[record]]
compound = "O=[N+]([O-])c1ccc(Cl)c([N+](=O)[O-])c1 [1-Chloro-2,4-dinitrobenzene]"
study_system = "NKTC primary neonatal keratinocytes"
quantitative_result = 9.18

[[record]]
compound = "CC(C)(c1ccc(OCC2CO2)cc1)c1ccc(OCC2CO2)cc1 (stereo not drawn) [Bisphenol A diglycidyl ether]"
study_system = "NKTC primary neonatal keratinocytes"
quantitative_result = 71.2

[[record]]
compound = "CNc1ccc(O)cc1 [p-Methylaminophenol sulfate]"
study_system = "NKTC primary neonatal keratinocytes"
quantitative_result = 24.3

[[record]]
compound = "CCCCCCCCCCCCN1CCCC1=O [1-Dodecyl-2-pyrrolidinone]"
study_system = "NKTC primary neonatal keratinocytes"
quantitative_result = 29.1

[[record]]
compound = "CC(=O)[O][Hg][c]1ccccc1 [Phenylmercuric acetate]"
study_system = "NKTC primary neonatal keratinocytes"
quantitative_result = 0.37

[[record]]
compound = "Oc1c(Cl)c(Cl)c(Cl)c(Cl)c1Cl [Pentachlorophenol]"
study_system = "NKTC primary neonatal keratinocytes"
quantitative_result = 4.23


Prompt: Retrieve IC50 cell viability measured for O=c1c(-c2ccccc2)c1-c1ccccc1 [Diphenylcyclopropenone] and print it.
Response: 5.69
